Cited source: PubChem BioAssay

protocol notes: compounds altering in vitro BBB leakiness – cell-based, FITC-avidin fluorescence, HTS, primary screen (AID 1963498); further: test concentration not given here
particulars: brain endothelial barrier, actives lie on both sides
readout type: fold change permeability
Could you respond with only the numeric value?

// known answers, use as guide
compound=COc1cc(O)c(C)c(O)c1C(=O)CCc1ccccc1 readout_type="fold change permeability" readout_number=1.8
compound=CC(C)=CCc1cc2c(cc1O)oc(=O)c1c3ccc(O)cc3oc21 readout_type="fold change permeability" readout_number=1.4
compound="Cn1cc(C(F)(F)F)nc1-c1ccc(OCC(O)CNCCOc2ccc(O)c(C(N)=O)c2)cc1 (stereo unspecified)" readout_type="fold change permeability" readout_number=1.3
compound="CN(C)CCC(c1ccc(Cl)cc1)c1ccccn1 (stereo unspecified)" readout_type="fold change permeability" readout_number=1.1
compound=OC[C@H]1O[C@@H](n2cnc3c(NC4CCCCC4)ncnc32)[C@H](O)[C@@H]1O readout_type="fold change permeability" readout_number=1.2
compound=Oc1ccc2c(c1)CC[C@H](c1ccccc1)[C@@H]2c1ccc(OCCN2CCCC2)cc1 readout_type="fold change permeability" readout_number=1.3
compound=Cn1c(CNc2ccc(C(=N)N)cc2)nc2cc(C(=O)N(CCC(=O)O)c3ccccn3)ccc21 readout_type="fold change permeability" readout_number=1.1
compound=NCCCCNCCCN readout_type="fold change permeability" readout_number=0.7
compound="O=C(O)C1CCCNC1 (stereo unspecified)" readout_type="fold change permeability" readout_number=1.3
compound=COCCNC(=O)COc1ccc(OCCNC[C@H](O)COc2ccccc2)cc1 readout_type="fold change permeability" readout_number=1

Look up fold change permeability: "N=C(N)N1CCc2ccccc2C1" 1.3
